// data source = patent US20240181094A1

CONDITIONS: mouse, in vivo
Description: Early side effects were assessed based on the RBW of each mouse which was monitored every second day. When an endpoint was reached or at the end of the study (after 49 days), relevant organs and tissues were collected, weighed and put into relation to the brain mass and body weight of the respective mouse. […] In addition, blood plasma parameters from blood collected immediately after euthanasia were measured. RBW, organ mass and mass ratios at the endpoint. The RBW was monitored every second day. […]
Starred links: 1 amine or outer side, 2 acyl side, 3 side chain; linkers in the order of their positions; H or OH if unused. Positions of bridges follow the written chain, without caps; N, C: chain ends. Non-standard residues stand in square brackets, D forms with d. Residues, ends and D or L forms follow the SMILES beside them. *: point of attachment. DOTA = O=C(O)CN1CCN(CC(=O)O)CCN(CC(=O)*)CCN(CC(=O)O)CC1; X1 = NC(=O)Nc1ccc(CC(N[*:1])C(=O)[*:2])cc1; Phe(4-Cl) = N[CH](Cc1ccc(Cl)cc1)C(=O)O
MEASURE NAME: Organ mass Kidneys (mg)
Provide the reading as a plain figure in mg.

Query :: Hello, please tell me recorded Organ mass Kidneys for this one: CC(O)C1NC(=O)C(CCCCN)NC(=O)C(Cc2ccc(NC(N)=O)cc2)NC(=O)C(Cc2ccc(O)cc2)NC(=O)C(NC(=O)C(Cc2ccc(Cl)cc2)NC(=O)CN2CCN(CC(=O)O)CCN(CC(=O)O)CCN(CC(=O)O)CC2)CSSCC(C(=O)NC(Cc2ccc(O)cc2)C(N)=O)NC1=O (stereo not shown) [metal not drawn] ({DOTA}-[Phe(4-Cl)]CY[X1]KTCY-NH2; disulfide 2-7; configuration not given here)
Result :: 332

* * *

CONDITIONS: mouse, in vivo
Procedure: Early side effects were assessed based on the RBW of each mouse which was monitored every second day. When an endpoint was reached or at the end of the study (after 49 days), relevant organs and tissues were collected, weighed and put into relation to the brain mass and body weight of the respective mouse. […] In addition, blood plasma parameters from blood collected immediately after euthanasia were measured. RBW, organ mass and mass ratios at the endpoint. The RBW was monitored every second day. […]
Starred links: 1 amine or outer side, 2 acyl side, 3 side chain; linkers in the order of their positions; H or OH if unused. Positions of bridges follow the written chain, without caps; N, C: chain ends. Non-standard residues stand in square brackets, D forms with d. Residues, ends and D or L forms follow the SMILES beside them. *: point of attachment. DOTA = O=C(O)CN1CCN(CC(=O)O)CCN(CC(=O)*)CCN(CC(=O)O)CC1; dPhe(4-NHCONH2) = NC(=O)Nc1ccc(C[C@@H](N)C(=O)O)cc1; X1 = NC(=O)Nc1ccc(CC(N[*:1])C(=O)[*:2])cc1; Phe(4-Cl) = N[CH](Cc1ccc(Cl)cc1)C(=O)O
MEASURE NAME: ALP (alkaline phosphatase), plasma (U/L)
Give just the number in U/L; leave the unit off.

C[C@@H](O)[C@@H]1NC(=O)[C@H](CCCCN)NC(=O)[C@@H](Cc2c[nH]c3ccccc23)NC(=O)[C@H](Cc2ccc(O)cc2)NC(=O)[C@@H](NC(=O)[C@@H](Cc2ccccc2)NC(=O)CN2CCN(CC(=O)O)CCN(CC(=O)O)CCN(CC(=O)O)CC2)CSSC[C@@H](C(=O)N[C@H](CO)[C@@H](C)O)NC1=O [[^177Lu]Lu-DOTATOC] [metal not drawn]
77
CC(O)C1NC(=O)C(CCCCN)NC(=O)C(Cc2ccc(NC(N)=O)cc2)NC(=O)C(Cc2ccc(O)cc2)NC(=O)C(NC(=O)C(Cc2ccc(Cl)cc2)NC(=O)CN2CCN(CC(=O)O)CCN(CC(=O)O)CCN(CC(=O)O)CC2)CSSCC(C(=O)NC(Cc2ccc(O)cc2)C(N)=O)NC1=O (stereo not shown) [metal not drawn] ({DOTA}-[Phe(4-Cl)]CY[X1]KTCY-NH2; disulfide 2-7; configuration not given here)
65
C[C@@H](O)[C@@H]1NC(=O)[C@H](CCCCN)NC(=O)[C@@H](Cc2c[nH]c3ccccc23)NC(=O)[C@H](Cc2ccc(O)cc2)NC(=O)[C@@H](NC(=O)[C@@H](Cc2ccccc2)NC(=O)CN2CCN(CC(=O)O)CCN(CC(=O)O)CCN(CC(=O)O)CC2)CSSC[C@@H](C(=O)N[C@H](CO)[C@@H](C)O)NC1=O [[^161Tb]Tb-DOTATOC] [metal not drawn]
76

Kindly consider the entry below.
Query :: Give me measured ALP (alkaline phosphatase), plasma, please, for this molecule: C[C@@H](O)[C@@H]1NC(=O)[C@H](CCCCN)NC(=O)[C@@H](Cc2ccc(NC(N)=O)cc2)NC(=O)[C@H](Cc2ccc(O)cc2)NC(=O)[C@H](NC(=O)[C@H](Cc2ccc(Cl)cc2)NC(=O)CN2CCN(CC(=O)O)CCN(CC(=O)O)CCN(CC(=O)O)CC2)CSSC[C@@H](C(=O)N[C@H](Cc2ccc(O)cc2)C(N)=O)NC1=O [metal not drawn] ({DOTA}-[Phe(4-Cl)][dC]Y[dPhe(4-NHCONH2)]KTC[dY]-NH2; disulfide 2-7)
Result :: 66

* * *

CONDITIONS: mouse, in vivo
Starred links: 1 amine or outer side, 2 acyl side, 3 side chain; linkers in the order of their positions; H or OH if unused. Positions of bridges follow the written chain, without caps; N, C: chain ends. Non-standard residues stand in square brackets, D forms with d. Residues, ends and D or L forms follow the SMILES beside them. *: point of attachment. DOTA = O=C(O)CN1CCN(CC(=O)O)CCN(CC(=O)*)CCN(CC(=O)O)CC1; dPhe(4-NHCONH2) = NC(=O)Nc1ccc(C[C@@H](N)C(=O)O)cc1; X1 = NC(=O)Nc1ccc(CC(N[*:1])C(=O)[*:2])cc1; Phe(4-Cl) = N[CH](Cc1ccc(Cl)cc1)C(=O)O
Listing of entries alongside the reported ALB (albumin), plasma.
Express the result in g/L but write the number alone.

Here are 3 molecules together with their reported answers.
C[C@@H](O)[C@@H]1NC(=O)[C@H](CCCCN)NC(=O)[C@@H](Cc2c[nH]c3ccccc23)NC(=O)[C@H](Cc2ccc(O)cc2)NC(=O)[C@@H](NC(=O)[C@@H](Cc2ccccc2)NC(=O)CN2CCN(CC(=O)O)CCN(CC(=O)O)CCN(CC(=O)O)CC2)CSSC[C@@H](C(=O)N[C@H](CO)[C@@H](C)O)NC1=O [[^177Lu]Lu-DOTATOC] [metal not drawn]
24
C[C@@H](O)[C@@H]1NC(=O)[C@H](CCCCN)NC(=O)[C@@H](Cc2ccc(NC(N)=O)cc2)NC(=O)[C@H](Cc2ccc(O)cc2)NC(=O)[C@H](NC(=O)[C@H](Cc2ccc(Cl)cc2)NC(=O)CN2CCN(CC(=O)O)CCN(CC(=O)O)CCN(CC(=O)O)CC2)CSSC[C@@H](C(=O)N[C@H](Cc2ccc(O)cc2)C(N)=O)NC1=O [metal not drawn] ({DOTA}-[Phe(4-Cl)][dC]Y[dPhe(4-NHCONH2)]KTC[dY]-NH2; disulfide 2-7)
23
C[C@@H](O)[C@@H]1NC(=O)[C@H](CCCCN)NC(=O)[C@@H](Cc2c[nH]c3ccccc23)NC(=O)[C@H](Cc2ccc(O)cc2)NC(=O)[C@@H](NC(=O)[C@@H](Cc2ccccc2)NC(=O)CN2CCN(CC(=O)O)CCN(CC(=O)O)CCN(CC(=O)O)CC2)CSSC[C@@H](C(=O)N[C@H](CO)[C@@H](C)O)NC1=O [[^161Tb]Tb-DOTATOC] [metal not drawn]
23

Please turn your attention to the following entry.
Query :: Answer with reported ALB (albumin), plasma of CC(O)C1NC(=O)C(CCCCN)NC(=O)C(Cc2ccc(NC(N)=O)cc2)NC(=O)C(Cc2ccc(O)cc2)NC(=O)C(NC(=O)C(Cc2ccc(Cl)cc2)NC(=O)CN2CCN(CC(=O)O)CCN(CC(=O)O)CCN(CC(=O)O)CC2)CSSCC(C(=O)NC(Cc2ccc(O)cc2)C(N)=O)NC1=O (stereo not shown) [metal not drawn] ({DOTA}-[Phe(4-Cl)]CY[X1]KTCY-NH2; disulfide 2-7; configuration not given here)
Result :: 22

* * *

Organ mass Kidneys listing for selected compounds.
CONDITIONS: mouse, in vivo
Positions of bridges follow the written chain, without caps; N, C: chain ends. Non-standard residues stand in square brackets, D forms with d. Residues, ends and D or L forms follow the SMILES beside them. *: point of attachment. DOTA = O=C(O)CN1CCN(CC(=O)O)CCN(CC(=O)*)CCN(CC(=O)O)CC1; dPhe(4-NHCONH2) = NC(=O)Nc1ccc(C[C@@H](N)C(=O)O)cc1; Phe(4-Cl) = N[C@@H](Cc1ccc(Cl)cc1)C(=O)O
Give the value in mg but do not write mg after it.

Below are worked cases with known answers.
C[C@@H](O)[C@@H]1NC(=O)[C@H](CCCCN)NC(=O)[C@@H](Cc2c[nH]c3ccccc23)NC(=O)[C@H](Cc2ccc(O)cc2)NC(=O)[C@@H](NC(=O)[C@@H](Cc2ccccc2)NC(=O)CN2CCN(CC(=O)O)CCN(CC(=O)O)CCN(CC(=O)O)CC2)CSSC[C@@H](C(=O)N[C@H](CO)[C@@H](C)O)NC1=O [[^177Lu]Lu-DOTATOC] [metal not drawn]
342
C[C@@H](O)[C@@H]1NC(=O)[C@H](CCCCN)NC(=O)[C@@H](Cc2c[nH]c3ccccc23)NC(=O)[C@H](Cc2ccc(O)cc2)NC(=O)[C@@H](NC(=O)[C@@H](Cc2ccccc2)NC(=O)CN2CCN(CC(=O)O)CCN(CC(=O)O)CCN(CC(=O)O)CC2)CSSC[C@@H](C(=O)N[C@H](CO)[C@@H](C)O)NC1=O [[^161Tb]Tb-DOTATOC] [metal not drawn]
352

// moving on: another record for Organ mass Kidneys
Query :: Write down Organ mass Kidneys measured for item C[C@@H](O)[C@@H]1NC(=O)[C@H](CCCCN)NC(=O)[C@@H](Cc2ccc(NC(N)=O)cc2)NC(=O)[C@H](Cc2ccc(O)cc2)NC(=O)[C@H](NC(=O)[C@H](Cc2ccc(Cl)cc2)NC(=O)CN2CCN(CC(=O)O)CCN(CC(=O)O)CCN(CC(=O)O)CC2)CSSC[C@@H](C(=O)N[C@H](Cc2ccc(O)cc2)C(N)=O)NC1=O [metal not drawn] ({DOTA}-[Phe(4-Cl)][dC]Y[dPhe(4-NHCONH2)]KTC[dY]-NH2; disulfide 2-7)
Result :: 336
